Where do these numbers come from? They come from the Immune Epitope Database (IEDB).

- Study target: HLA-A*03:01
- Protocol summary: IEDB peptide-MHC binding, purified MHC/direct/fluorescence; filed as Kd, often an IC50 or EC50 that approximates it; bounds were set here for any values at or beyond the usual limits of such assays
- Run parameters: source organism: Salmonella enterica subsp. enterica serovar Typhimurium
Observation type: Kd

- Input sequence: "RVNKGTGVK"
  Result: "359 nM"

----------
- Study target: HLA-A*24:03
- Protocol summary: IEDB peptide-MHC binding, purified MHC/direct/fluorescence; filed as Kd, often an IC50 or EC50 that approximates it; bounds were set here for any values at or beyond the usual limits of such assays
- Run parameters: source organism: Pasteurella multocida

- Input sequence: "VMLDWGIEL"
  Kd: "≥ 20 µM"
